melting point listing for selected compounds.

The following compounds have reported results that may help.
| Structure string | melting point |
| --- | --- |
| O=C(NCC12CC3CC(CC(C3)C1)C2)c1cc(-c2ccncc2C(=O)O)ccc1Cl | 104 to 107 °C |
| COc1ccc(-c2ccc(Cl)c(C(=O)NCC34CC5CC(CC(C5)C3)C4)c2)c(C(=O)O)c1 | 219 to 221 °C |
| O=C(O)COc1ccccc1-c1ccc(Cl)c(C(=O)NCC23CC4CC(CC(C4)C2)C3)c1 | 208 to 210 °C |
| O=C(NCC12CC3CC(CC(C3)C1)C2)c1cc(-c2ccccc2C(=O)O)ncc1Cl | 134 to 138 °C |
| Cc1ccc(-c2ccc(Cl)c(C(=O)NCC34CC5CC(CC(C5)C3)C4)c2)c(C(=O)O)c1 | 214 to 216 °C |

**Query** Need melting point, item `O=C(NCC12CC3CC(CC(C3)C1)C2)c1cc(-c2ccsc2C(=O)O)ccc1Cl`
**Result** 140 to 143 °C

**Query** Need melting point, item `O=C(NCC12CC3CC(CC(C3)C1)C2)c1cc(-c2ccc(Cl)c(C(=O)O)n2)ccc1Cl`
**Result** 154 to 159 °C

**Query** Need melting point, item `O=C(NCCC12CC3CC(CC(C3)C1)C2)c1cc(-c2cccnc2C(=O)O)ccc1Cl`
**Result** 108 to 111 °C

###

Counter-ions that a name gives are not always drawn.
melting point listing for selected compounds.

The following compounds have reported results that may help.
| Compound | melting point |
| --- | --- |
| O=C(NCC12CC3CC(CC(C3)C1)C2)c1cc(-c2nccnc2C(=O)O)ccc1Cl (as salt: sodium) [Example 6, monosodium salt] | 194 to 195 °C (dec.) |
| O=C(NCC12CC3CC(CC(C3)C1)C2)c1cc(-c2nccnc2-c2nnn[nH]2)ccc1Cl | 254 °C (dec.) |
| Cc1ccc(C(=O)O)c(-c2ccc(Cl)c(C(=O)NCC34CC5CC(CC(C5)C3)C4)c2)n1 | 209 to 211 °C |
| Cc1ccc(-c2ccc(Cl)c(C(=O)NCC34CC5CC(CC(C5)C3)C4)c2)c(C(=O)O)n1 | 125 to 130 °C |
| O=C(O)COc1ncccc1-c1ccc(Cl)c(C(=O)NCC23CC4CC(CC(C4)C2)C3)c1 | 226 to 229 °C |

**Query** Need melting point, item `Cc1ccc(-c2cccnc2C(=O)O)cc1C(=O)NCC12CC3CC(CC(C3)C1)C2`
**Result** 181 to 183 °C

**Query** Need melting point, item `Cn1ncc(-c2ccc(Cl)c(C(=O)NCC34CC5CC(CC(C5)C3)C4)c2)c1C(=O)O`
**Result** 187 to 190 °C (dec.)

###

Measure name: melting point

The following compounds have reported results that may help.
| Compound | melting point |
| --- | --- |
| O=C(NCC12CC3CC(CC(C3)C1)C2)c1cc(-c2cc(F)cnc2N2CCC(C(=O)O)CC2)ccc1Cl | 130 to 135 °C |
| Cc1nn(C)c(C(=O)O)c1-c1ccc(Cl)c(C(=O)NCC23CC4CC(CC(C4)C2)C3)c1 | 207 °C |
| O=C(NCC12CC3CC(CC(C3)C1)C2)c1cc(-c2ccccc2C(=O)O)ccc1Cl | 228 to 230 °C |
| O=C(NCC12CC3CC(CC(C3)C1)C2)c1cc(-c2ncc(Cl)cc2C(=O)O)ccc1Cl | 165 to 168 °C |
| O=C(NCC12CC3CC(CC(C3)C1)C2)c1cc(-c2cccnc2N2CCC(O)(C(=O)O)CC2)ccc1Cl | 145 to 150 °C |
| N#CNc1cncc(-c2ccc(Cl)c(C(=O)NCC34CC5CC(CC(C5)C3)C4)c2)n1 | 215 to 220 °C (dec.) |

**Query** Need melting point, item O=C(NCC12CC3CC(CC(C3)C1)C2)c1cc(-c2cccnc2N2CCCC(C(=O)O)C2)ccc1Cl (centres unmarked)
**Result** 125 to 130 °C

**Query** Need melting point, item `Cc1ccnc(-c2ccc(Cl)c(C(=O)NCC34CC5CC(CC(C5)C3)C4)c2)c1C(=O)O`
**Result** 177 to 180 °C
